tested on: S. aureus NMI 2541 K MRSA; test: Antibacterial activity against clinical MRSA: MIC/MBC; assay type: cell-based; details: Staphylococcus aureus; NMI 2541 K MRSA; read-out: MBC (first MBC where Eagle effect)
quantity-measured: MBC (µg/mL)
Give bare numbers, in µg/mL.

Recorded results for 4 compounds are shown here.
[
  {
    "compound": "C[Si]1(C)OB(O)c2ccc(SCC(=O)c3ccccc3)c(F)c21",
    "MBC, µg/mL": 6.25
  },
  {
    "compound": "C[Si]1(C)OB(O)c2cc(F)c(SCCC#N)c(F)c21",
    "MBC, µg/mL": 25
  },
  {
    "compound": "C[Si]1(C)OB(O)c2ccc(SC(=O)c3ccc(C(F)(F)F)cc3)c(F)c21",
    "MBC, µg/mL": 25
  },
  {
    "compound": "C[Si]1(C)OB(O)c2cc(F)c(SC3CC(=O)NC3=O)c(F)c21 (stereo not shown)",
    "MBC, µg/mL": 200
  }
]

Give MBC for each of the items listed below.
1. C[Si]1(C)OB(O)c2cc(F)c(SCCS(=O)(=O)c3ccccc3)c(F)c21
2. CC(=O)CSc1ccc2c(c1F)[Si](C)(C)OB2O

[25, 200]

----------
tested on: C. tropicalis ATCC 750; assay: Antifungal activity: MIC/MFC, disc-diffusion; format: cell-based; conditions: Candida tropicalis, ATCC750; read-out: MIC
Excerpt: […]
quantity-measured: MIC

Give MIC for each of the items listed below.
1. C[Si]1(C)OB(O)c2cc(F)c(SCCC(=O)Nc3ncccn3)c(F)c21
2. C[Si]1(C)OB(O)c2cc(F)c(S(N)(=O)=O)c(F)c21
3. C[Si]1(C)OB(O)c2ccc(SCCC(=O)OCCCCCC[n+]3ccccc3)c(F)c21
4. C[Si]1(C)OB(O)c2cc(F)c(SC3CC(=O)N(c4ccc(Br)c(C(F)(F)F)c4)C3=O)c(F)c21 (stereo not shown)
5. C[Si]1(C)OB(O)c2ccc(S)c(F)c21

1. > 400 µg/mL
2. > 400 µg/mL
3. 400 µg/mL
4. 50 µg/mL
5. > 100 µg/mL

Give MIC for each of the items listed below.
1. C[Si]1(C)OB(O)c2ccc(SC3CC(=O)N(c4ccc(F)cc4)C3=O)c(F)c21 (stereo not shown)
2. C[Si]1(C)OB(O)c2ccc(SC3CC(=O)N(c4ccc(Br)c(C(F)(F)F)c4)C3=O)c(F)c21 (stereo not shown)
3. C[Si]1(C)OB(O)c2cc(F)c(SCCC(=O)N3CCOCC3)c(F)c21
4. C[Si]1(C)OB(O)c2cc(F)c(SCCS(=O)(=O)c3ccccc3)c(F)c21
5. C[Si]1(C)OB(O)c2cc(F)c(SCCC(=O)ON3C(=O)CCC3=O)c(F)c21

1. > 200 µg/mL
2. 100 µg/mL
3. > 400 µg/mL
4. > 400 µg/mL
5. > 400 µg/mL

----------
test system: S. maltophilia ATCC 13637; assay: Antibacterial activity: MIC/MBC, MIC with PAβN, disc-diffusion; format: cell-based, Stenotrophomonas maltophilia; conditions: Stenotrophomonas maltophilia, ATCC13637; S. maltophilia ATCC 13637; read-out: MIC
quantity-measured: MIC

Recorded results for 8 compounds are shown here.
[
  {
    "compound": "C[Si]1(C)OB(O)c2cc(F)c(SCCC#N)c(F)c21 [Compound 6]",
    "data-value": "> 400 µg/mL"
  },
  {
    "compound": "C[Si]1(C)OB(O)c2cc(F)c(SC3CC(=O)N(c4ccc(F)cc4)C3=O)c(F)c21 (stereo not shown) [Compound 14]",
    "data-value": "25 µg/mL"
  },
  {
    "compound": "C[Si]1(C)OB(O)c2cc(F)c(SCCC(=O)Nc3cnccn3)c(F)c21 [Compound 10]",
    "data-value": "> 400 µg/mL"
  },
  {
    "compound": "C[Si]1(C)OB(O)c2cc(F)c(SCCC(=O)ON3C(=O)CCC3=O)c(F)c21 [Compound 5]",
    "data-value": "> 400 µg/mL"
  },
  {
    "compound": "C[Si]1(C)OB(O)c2cc(F)c(SCCC(=O)Nc3ncccn3)c(F)c21 [Compound 9]",
    "data-value": "> 400 µg/mL"
  },
  {
    "compound": "C[Si]1(C)OB(O)c2ccc(SC3CC(=O)N(c4ccc(Br)c(C(F)(F)F)c4)C3=O)c(F)c21 (stereo not shown) [Compound 17]",
    "data-value": "> 200 µg/mL"
  },
  {
    "compound": "C[Si]1(C)OB(O)c2cc(F)c(SCCS(=O)(=O)c3ccccc3)c(F)c21 [Compound 20]",
    "data-value": "> 400 µg/mL"
  },
  {
    "compound": "C[Si]1(C)OB(O)c2ccc(S)c(F)c21 [Compound 2e]",
    "data-value": "> 100 µg/mL"
  }
]

Give MIC for each of the items listed below.
1. C[Si]1(C)OB(O)c2cc(F)c(S)c(F)c21 [Compound 1e]
2. C[Si]1(C)OB(O)c2ccc(SCC(=O)c3ccccc3)c(F)c21 [Compound 23]
3. C[Si]1(C)OB(O)c2ccc(SC3CC(=O)NC3=O)c(F)c21 (stereo not shown) [Compound 13]
4. CC(=O)CCSc1c(F)cc2c(c1F)[Si](C)(C)OB2O [Compound 3]

> 400 µg/mL
> 400 µg/mL
25 µg/mL
400 µg/mL

----------
test system: E. faecalis ATCC 29212; assay: Antibacterial activity: MIC/MBC determination and disc-diffusion; assay type: cell-based; details: Enterococcus faecalis, ATCC29212; E. faecalis ATCC 29212
Text: […]
quantity-measured: MBC (µg/mL)
One number for each entry, in µg/mL.

Recorded results for 7 compounds are shown here.
[
  {
    "compound": "C[Si]1(C)OB(O)c2cc(F)c(S)c(F)c21",
    "MBC, µg/mL": 100
  },
  {
    "compound": "C[Si]1(C)OB(O)c2ccc(SCC(=O)c3ccccc3)c(F)c21",
    "MBC, µg/mL": 200
  },
  {
    "compound": "C[Si]1(C)OB(O)c2ccc(SC3CC(=O)N(c4ccc(Br)c(C(F)(F)F)c4)C3=O)c(F)c21 (stereo not drawn)",
    "MBC, µg/mL": 200
  },
  {
    "compound": "C[Si]1(C)OB(O)c2cc(F)c(SC3CC(=O)N(c4ccc(Br)c(C(F)(F)F)c4)C3=O)c(F)c21 (stereo not drawn)",
    "MBC, µg/mL": 200
  },
  {
    "compound": "CC(=O)CSc1ccc2c(c1F)[Si](C)(C)OB2O",
    "MBC, µg/mL": 400
  },
  {
    "compound": "C[Si]1(C)OB(O)c2ccc(SC(=O)c3ccc(C(F)(F)F)cc3)c(F)c21",
    "MBC, µg/mL": 25
  },
  {
    "compound": "CC(=O)CCSc1c(F)cc2c(c1F)[Si](C)(C)OB2O",
    "MBC, µg/mL": 200
  }
]

So what does the record say about MBC for `C[Si]1(C)OB(O)c2ccc(SCCC(=O)OCCCCCC[n+]3ccccc3)c(F)c21` ?
400

----------
tested on: E. cloacae DSM 6234; assay: Antibacterial activity: MIC/MBC, MIC with PAβN, disc-diffusion; assay type: cell-based, Enterobacter cloacae; settings: E. cloacae DSM 6234; PAβN 20 μg mL^−1, MHB + 1 mM MgSO4
Could you please report measured -fold reduction of MIC in the presence of PAβN for the items listed next?

Give -fold reduction of MIC in the presence of PAβN for each of the items listed below.
1. COC(=O)CCSc1ccc2c(c1F)[Si](C)(C)OB2O
2. C[Si]1(C)OB(O)c2ccc(SC3CC(=O)NC3=O)c(F)c21 (stereo not shown)
3. C[Si]1(C)OB(O)c2cc(F)c(SCCS(=O)(=O)c3ccccc3)c(F)c21
4. C[Si]1(C)OB(O)c2cc(F)c(SC3CC(=O)NC3=O)c(F)c21 (stereo not shown)

1. 8 -fold
2. 4 -fold
3. 4 -fold
4. 8 -fold

----------
test system: Human normal lung fibroblasts MRC-5; assay: MTT-based viability (cytotoxicity) assay; conditions: 25 µg·mL−1, 48 h
quantity-measured: viability of MRC-5

Recorded results for 3 compounds are shown here.
[
  {
    "compound": "C[Si]1(C)OB(O)c2cc(F)c(SC3CC(=O)NC3=O)c(F)c21 (centres unmarked)",
    "quantity-measured": "viability of MRC-5",
    "data-value": "94.9±2.3 % of control ± SD"
  },
  {
    "compound": "C[Si]1(C)OB(O)c2cc(F)c(S(N)(=O)=O)c(F)c21",
    "quantity-measured": "viability of MRC-5",
    "data-value": "79.3±9.5 % of control ± SD"
  },
  {
    "compound": "C[Si]1(C)OB(O)c2ccc(SC3CC(=O)N(c4ccc(Br)c(C(F)(F)F)c4)C3=O)c(F)c21 (centres unmarked)",
    "quantity-measured": "viability of MRC-5",
    "data-value": "87.6±0.2 % of control ± SD"
  }
]

Give viability of MRC-5 for each of the items listed below.
1. CCOP(=O)(OCC)Sc1c(F)cc2c(c1F)[Si](C)(C)OB2O
2. C[Si]1(C)OB(O)c2ccc(SCC(=O)c3ccccc3)c(F)c21

1: 81.6±2.6 % of control ± SD; 2: 83.3±4.4 % of control ± SD

Every entry's value here was drawn from paper PMC11110727.
